# INHIBITION values compiled below
- Test system: Plasmodium berghei
- MEASUREMENT PROTOCOL: Screen against P. berghei liver stage (PbLuc), transformed with Luciferase, at 2uM
- Type: functional, HepG2
- MEASUREMENT CONDITIONS: tested at 2 uM
The whole screen tested about 68,000 compounds, of which about 2,700 (4%) showed an effect of 50% or more. The full list was thinned out, with strong results kept by preference.
API: value field is a number in %; no unit string.

Exercise: # input compound: Cc1ncsc1CCN(C)C(=O)CN1CCCCCC1=O ; wanted: its INHIBITION
Solution: 24.36

Exercise: # input compound: CC(NC(=O)NCCS(C)(=O)=O)c1ccc2c(c1)CCC(=O)N2 (stereo not given) ; wanted: its INHIBITION
Solution: 60.13

Exercise: # input compound: OCCn1nccc1C1CCN(CCOc2ccccc2)CC1 ; wanted: its INHIBITION
Solution: 39.72

Exercise: # input compound: CC(=O)N1CCCC1C(=O)NCCOc1cccc(F)c1 (stereo not given) ; wanted: its INHIBITION
Solution: 16.25

Exercise: # input compound: Cc1nc(CC(C)C)cc(C(=O)N2C[C@@H](CN(C)C)[C@@H](CO)C2)n1 ; wanted: its INHIBITION
Solution: 3.46
